recorded endpoint: melting point

Guide cases for melting point, answers given:
> print(dat)
                                   molecule            val
1              Oc1ccc(-c2cc3cc(O)ccc3o2)cc1  218 to 222 °C
2  O=C(OCc1ccccc1)c1ccc(OCc2ccc(COc3ccc(C(=O)OCc4ccccc4)cc3)cc2)cc1  154 to 157 °C
3  CCCC(=O)NCCc1ccc(S(=O)(=O)N2CCN(C3CCCCC3)C2=N)s1  121 to 125 °C
4  CCCCCCC(C)(C)c1cc(OCc2ccccc2)c(C2=C(C(C)(C)C(N)=O)CCC(C)C2)c(OCc2ccccc2)c1 (centres undefined)  113 to 114 °C
5  CCN(C)c1nc2sc3c(NCCCN4CCCC4=O)ncnc3c2c2c1CCC(C)(C)C2  166 to 167 °C

Value sought for every listed molecule: melting point.
1. O=C(NC(=O)c1c(F)cccc1F)Nc1ccc(-c2ccc(Cl)cc2)cn1
2. Cc1cccc(C)c1NC(=O)CN1CCNCC1CC(N)=O (centres undefined)
3. O=C(O)COc1cc(Cl)ccc1C(=O)NCc1ccc(Cl)cc1
4. CCOC(=O)c1ncn2c1[C@@H]1CCN1C(=O)c1c-2cccc1C(F)(F)F

1: 229 to 234 °C; 2: 172 °C; 3: 184 to 186 °C; 4: 183 to 184 °C

====

Can you tell me melting point for the items I'm about to list?

Value sought for every listed compound: melting point.
1. CCOC(=O)C(C)(C)Oc1ccc2c(c1)C=C(c1nccn1C)CO2
2. CC(C)OC1OC(=O)CC(C)(C)C1O (stereo unspecified)
3. COC(=O)c1cc(C(C)(C)C)c(O[Si](C)(C)Oc2c(C(C)(C)C)cc(C(=O)OC)cc2C(C)(C)C)c(C(C)(C)C)c1

210 to 215 °C
50 °C
197 to 198 °C

Value sought for every listed compound: melting point.
1. Nc1nc(N)nc(-c2ccc3c(c2)OC(F)(F)C(F)(F)O3)n1
2. COc1ccc(CC(=O)NC(NC(=NC#N)Nc2c(F)cc(F)cc2F)C(C)(C)C)cc1OC (stereo unspecified)
3. O=C(O)C1(c2ccc3c(c2)OCO3)CC(F)(F)C1(F)F (stereo unspecified)
4. O=C(NC1CC1)c1ccc(N2CCNCC2)cc1

1: 176 to 179 °C; 2: 170 to 171 °C; 3: 168 to 169 °C; 4: 175 to 177 °C

Value sought for every listed compound: melting point.
1. CC(=O)[C@H]1CC[C@H](CNC(=O)OCc2ccccc2)CC1
2. COC(=O)CCCc1cc2nc(Cl)ccc2n1S(=O)(=O)c1ccc(OC)cc1
3. Nc1ccccc1NC(=O)c1cc2cc(OCCO)ccc2[nH]1
4. CCC1c2cccn2-c2ccccc2N1S(=O)(=O)c1ccc(O)c(C)c1 (stereo unspecified)
5. Clc1c(-c2cnco2)[nH]c2ccccc12
6. FC(F)(F)c1cccc(-c2ccnc(Nc3ccc4c(c3)OCCO4)c2)c1
7. COc1cc(OC)c(F)c(NCc2cnc(SC)nc2NC2CC2)c1F

66 to 67 °C
96 °C
222 to 223 °C
171 to 173 °C
131 to 134 °C
139 to 140 °C
48 to 50 °C

Value sought for every listed compound: melting point.
1. O[C@@H](CNCCOc1ccc2oc(-c3ccon3)cc2c1)COc1ccccc1Cl
2. CSC1Oc2cccc3cccc(c23)C1=O (stereo unspecified)
3. CC(=O)Oc1c(C)c(CCC2CC(O)CC(=O)O2)c2c(c1C)CC(C)(C)O2 (stereo unspecified)
4. CC(C)(CCCSCSCCCC(C)(C)C(=O)O)C(=O)O

["93 to 96 °C", "89 to 91 °C", "126 to 128 °C", "72 to 72.5 °C"]

Value sought for every listed compound: melting point.
1. O=CNCC1Cc2ccccc2Cc2ccccc21 (stereo unspecified)
2. CS(=O)(=O)c1ccc(-c2cc(C(=O)c3cc(-c4ccc(S(C)(=O)=O)cc4)c(N4CCOCC4)s3)sc2N2CCOCC2)cc1
3. COC1CCC2(C)C(=CC(=O)C3C4CCC(=O)C4(C)CCC32)C1 (stereo unspecified)

1. 109 to 111 °C
2. 235 to 236 °C
3. 227 to 229 °C

====

recorded endpoint: melting point

Guide cases for melting point, answers given:
> print(dat)
                                   compound            val
1  Cc1cc(N)c2c(c1Cl)CC(C)O2 (configuration not stated)  157 to 160 °C
2    O=C(NC(=S)Nc1ccccc1-c1ccccc1F)c1ccccc1  110 to 111 °C
3  COC(=O)c1ccc(CC(C#N)(c2ccccc2Cl)N2CCOCC2)cc1 (configuration not stated)  116 to 118 °C

Value sought for every listed compound: melting point.
1. CCc1nc(N)nc(N)c1-c1ccc(Cl)c(N=NN(CCO)C(C)(C)C)c1
2. OC[C@@H]1CC[C@H]2CN(c3ncc(F)cn3)CCN2C1
3. N#CN(CCN1CCC(C(=O)c2ccc(F)cc2)CC1)C(=N)NCCN1CCC(C(=O)c2ccc(F)cc2)CC1
4. COc1cc2nc(N)nc(-c3cccc(Br)c3)c2cc1OC
5. O=C(O)c1ccc(CC2(Cc3ccc(C(=O)O)cc3)C(=O)N=C3C=CC=CN32)cc1
6. N=C(N)c1ccc(N2CCN(C3CCC(CCC(=O)O)CC3)C2=O)cc1 (configuration not stated)
7. O=S1(=O)CCSC(Oc2cccc(Cl)c2)=N1

224 to 225 °C
148 to 150 °C
152 to 156 °C
246 to 249 °C
> 300 °C
> 200 °C
170 °C

====

Can you tell me melting point for the items I'm about to list?

Guide cases for melting point, answers given:
> print(dat)
                                   molecule  recorded.endpoint            val
1            CCOC(=O)C(=O)c1cc(F)cc2cccnc12      melting point  114 to 117 °C
2  O=[N+]([O-])c1ccc(N2CCN(Cc3ccccc3)CC2)cc1      melting point  115 to 118 °C
3  CC(=O)c1ccccc1NC(=O)CN1CCN(CCCC=C(c2ccc(F)cc2)c2ccc(F)cc2)C(C(N)=O)C1 (stereo not given)      melting point         111 °C

Value sought for every listed molecule: melting point.
1. COCCOCCn1cc(C(=O)NCc2ccc(Cl)cc2)c(=O)c2cc(CN(C)CC#N)ccc21
2. CC(=O)OC1C=CC2(C)C(=CCC3C2CCC2(C)C(C(C)CCCC(C)C)CCC32)C1 (stereo not given)

["118 to 120 °C", "73 to 75 °C"]

====

Can you tell me melting point for the items I'm about to list?

> print(dat)
                                   compound  recorded.endpoint            val
1               N#Cc1cc(I)c(N)c(C(F)(F)F)c1      melting point    86 to 88 °C
2  O=S1(=O)NC(C2CCCCC2)Nc2ccc(S(=O)(=O)N3CCCCC3)cc21 (centres undefined)      melting point  262 to 264 °C
3  CCCn1c(=O)c(-c2ccccc2)c2n(c1=O)C=CCS2=O (centres undefined)      melting point  174 to 175 °C
4           Cc1cc2nc(C(=O)O)c(=O)[nH]c2cc1C      melting point  276 to 285 °C
5  Cc1nc(-n2cc(CNc3ccccc3)nn2)sc1C(=O)NCc1ccccc1      melting point  159 to 162 °C
6     CC(C)(C)C1=CC(=CC#N)C=C(C(C)(C)C)C1=O      melting point  110 to 111 °C
7  CCCN([C@H]1COc2c(F)ccc(C(N)=O)c2C1)C(C)(C)C      melting point    70 to 75 °C
8  C=CCNc1nc(NCC=C)nc(N(CCCCCCN(c2nc(NCC=C)nc(NCC=C)n2)C2CC(C)(C)NC(C)(C)C2)C2CC(C)(C)NC(C)(C)C2)n1      melting point  161 to 163 °C

We next turn to a different compound, shown below.
Complete the entry with melting point for CC(=O)Oc1c(C)c(C)c2c(c1C)CC(C)(C(=O)Nc1cnc3c(C)cc(C)cc3c1-c1ccccc1Cl)O2 (centres undefined)
259 to 261 °C

====

Can you tell me melting point for the items I'm about to list?

Guide cases for melting point, answers given:
> print(dat)
                                   compound  recorded.endpoint            val
1  CC1C(=NO)CC2(O)C3Cc4ccc(O)c5c4C2(CCN3CC2CC2)C1O5 (stereo not given)      melting point  172 to 173 °C
2  CC(=O)OCC(COCn1cnc2c(=O)[nH]c(N)nc21)OC(C)=O (stereo not given)      melting point  222 to 224 °C
3              Cc1ccc2nc(NC3=NCCN3)[nH]c2c1      melting point  264 to 266 °C
4  CC(C)COC(=O)Nc1ccc(Sc2c(O)c3c(Cl)cc(Cl)cc3[nH]c2=O)cc1      melting point       > 300 °C
5  CC/C(=C(\c1ccc(/C=C/C(=O)O)cc1)c1ccc(OC(=O)c2ccco2)cc1)c1ccccc1      melting point  170 to 172 °C
6     COC(=O)N[C@@H](CSc1ccccc1)[C@H](O)CCl      melting point  113 to 114 °C
7  COCC(F)Cn1ccnc1[N+](=O)[O-] (stereo not given)      melting point    39 to 44 °C
8  Cc1ccc(NC(=O)c2ccc(O)c([N+](=O)[O-])c2)cc1C      melting point  209 to 212 °C
9    COc1nc2cc(Cl)c(F)c(CS(N)(=O)=O)c2nc1OC      melting point  227 to 228 °C

We next turn to a different compound, shown below.
Complete the entry with melting point for Cc1ccc(Cc2nc3cc(-c4ccc(-c5ccccc5)cc4)c(Cl)cc3[nH]2)cc1P(=O)(O)O
> 220 °C
